Readings of CC50 at 3 days for the listed molecules
- experiment: Compound toxicity, ATPLite total ATP levels
- Format: cell-based
- conditionNotes: human, HepG2 cells; concentration reducing total ATP levels by 50% relative to no drug controls; ATPLite three days after compound addition

Consider the worked cases shown below.
molecule	testReadout	observedMeasurement
O=S(=O)(N[C@H]1CC2=C(c3ccn(C(F)F)n3)[C@H](c3ccc(F)cc3Cl)N=C(c3nccs3)N2C1)N1CCC[C@@H]1C(F)(F)F	CC50 at 3 days	10 to 25 µM
N#CCC1(O)CC2=C(c3ccn(C(F)F)n3)[C@H](c3ccc(F)cc3Cl)N=C(c3nccs3)N2C1 (stereo partly shown)	CC50 at 3 days	> 25 µM
O=S(=O)(N[C@H]1CC2=C(c3ccn(C(F)F)n3)[C@H](c3ccc(F)cc3Cl)N=C(c3nccs3)N2C1)c1ccc(Br)cc1	CC50 at 3 days	> 25 µM
O=S(=O)(N[C@H]1CC2=C(c3ccn(C(F)F)n3)[C@H](c3ccc(F)cc3Cl)N=C(c3nccs3)N2C1)N1CCCCC1	CC50 at 3 days	10 to 25 µM
O=S(=O)(N[C@H]1CC2=C(c3ccn(C(F)F)n3)[C@H](c3ccc(F)cc3Cl)N=C(c3nccs3)N2C1)c1ccc(S(=O)(=O)C(F)F)cc1	CC50 at 3 days	> 25 µM
CS(=O)(=O)NC1CCN(S(=O)(=O)N[C@H]2CC3=C(c4ccn(C(F)F)n4)[C@H](c4ccc(F)cc4Cl)N=C(c4nccs4)N3C2)C1 (stereo partly shown)	CC50 at 3 days	> 25 µM
O=S(=O)(N[C@H]1CC2=C(c3ccn(C(F)F)n3)[C@H](c3ccc(F)cc3Cl)N=C(c3nccs3)N2C1)N1CC[C@@H](O)C1	CC50 at 3 days	> 25 µM
O=C(N[C@H]1CC2=C(c3ccn(C(F)F)n3)[C@H](c3ccc(F)cc3Cl)N=C(c3nccs3)N2C1)c1nccs1	CC50 at 3 days	> 25 µM
O=S(=O)(N[C@H]1CC2=C(c3ccn(C(F)F)n3)[C@H](c3ccc(F)cc3Cl)N=C(c3nccs3)N2C1)N1CCC(O)(C(O)CO)CC1 (stereo partly shown)	CC50 at 3 days	> 25 µM
O=S(=O)(N[C@H]1CC2=C(c3ccn(C(F)F)n3)[C@H](c3ccc(F)cc3Cl)N=C(c3nccs3)N2C1)c1ncc[nH]1	CC50 at 3 days	> 25 µM

Field CC50 at 3 days (entry `O=S(=O)(CCCCO)N[C@H]1CC2=C(c3ccn(C(F)F)n3)[C@H](c3ccc(F)cc3Cl)N=C(c3nccs3)N2C1` ) reads > 25 µM

Entry `O=S(=O)(N[C@H]1CC2=C(c3ccn(C(F)F)n3)[C@H](c3ccc(F)cc3Cl)N=C(c3nccs3)N2C1)N1CCC(O)(c2nccs2)CC1` ; CC50 at 3 days = > 25 µM

Just so you know, measured CC50 at 3 days for `O=C(N[C@H]1CC2=C(c3ccn(C(F)F)n3)[C@H](c3ccc(F)cc3Cl)N=C(c3nccs3)N2C1)c1ccccc1` came out at 10 to 25 µM

* * *

- experiment: Compound toxicity, ATPLite total ATP levels
- Format: cell-based
- conditionNotes: human, HepG2 cells; concentration reducing total ATP levels by 50% relative to no drug controls; ATPLite three days after compound addition
Form field: CC50 at 3 days (one value per entry).

Please review the entries below; each comes with its answer.
molecule	CC50 at 3 days
O=S(=O)(N[C@H]1CC2=C(c3ccn(C(F)F)n3)[C@H](c3ccc(F)cc3Cl)N=C(c3nccs3)N2C1)N1CCC(O)(c2cccnc2)CC1	> 25 µM
O=S(=O)(NCCc1ccccn1)N[C@H]1CC2=C(c3ccn(C(F)F)n3)[C@H](c3ccc(F)cc3Cl)N=C(c3nccs3)N2C1	> 25 µM
O=S(=O)(N[C@H]1CC2=C(c3ccn(C(F)F)n3)[C@H](c3ccc(F)cc3Cl)N=C(c3nccs3)N2C1)c1ccccc1F	> 25 µM
O=C1OCCN1C1CCN(S(=O)(=O)N[C@H]2CC3=C(c4ccn(C(F)F)n4)[C@H](c4ccc(F)cc4Cl)N=C(c4nccs4)N3C2)CC1	> 25 µM
O=S(=O)(N[C@H]1CC2=C(c3ccn(C(F)F)n3)[C@H](c3ccc(F)cc3Cl)N=C(c3nccs3)N2C1)c1ccc(Br)cn1	> 25 µM
CS(=O)(=O)c1cccc(S(=O)(=O)N[C@H]2CC3=C(c4ccn(C(F)F)n4)[C@H](c4ccc(F)cc4Cl)N=C(c4nccs4)N3C2)c1	> 25 µM
CS(=O)(=O)c1ccc(S(=O)(=O)N[C@H]2CC3=C(c4ccn(C(F)F)n4)[C@H](c4ccc(F)cc4Cl)N=C(c4nccs4)N3C2)cc1	10 to 25 µM
C[C@]1(O)CC[C@@H](c2ccc(S(=O)(=O)N[C@H]3CC4=C(c5ccn(C(F)F)n5)[C@H](c5ccc(F)cc5Cl)N=C(c5nccs5)N4C3)cc2)CC1	> 25 µM
O=S(=O)(N[C@H]1CC2=C(c3ccn(C(F)F)n3)[C@H](c3ccc(F)cc3Cl)N=C(c3nccs3)N2C1)N1CC(O)C1	> 25 µM
O=S(=O)(NCCCO)N[C@H]1CC2=C(c3ccn(C(F)F)n3)[C@H](c3ccc(F)cc3Cl)N=C(c3nccs3)N2C1	> 25 µM

Record `O=S(=O)(N[C@H]1CC2=C(c3ccn(C(F)F)n3)[C@H](c3ccc(F)cc3Cl)N=C(c3nccs3)N2C1)[C@H]1CC[C@H](O)CC1` . Reported CC50 at 3 days: > 25 µM

// `CC1(O)CCN(S(=O)(=O)N[C@H]2CC3=C(c4ccn(C(F)F)n4)[C@H](c4ccc(F)cc4Cl)N=C(c4nccs4)N3C2)CC1` : CC50 at 3 days value = > 25 µM

// CC50 at 3 days value for O=S(=O)(N[C@H]1CC2=C(c3ccn(C(F)F)n3)[C@H](c3ccc(F)cc3Cl)N=C(c3nccs3)N2C1)N1CC2CC2C1 (stereo partly drawn) : < 10 µM

Note to self: CC50 at 3 days recorded for `O=S(=O)(N[C@H]1CC2=C(c3ccn(C(F)F)n3)[C@H](c3ccc(F)cc3Cl)N=C(c3nccs3)N2C1)N1CCC(O)(c2ccncc2)CC1` was > 25 µM
